Biological target: L25I PETNR (Enterobacter cloacae, UniProt P71278, L26I)
Sequence (P71278 entry or part of it L26I): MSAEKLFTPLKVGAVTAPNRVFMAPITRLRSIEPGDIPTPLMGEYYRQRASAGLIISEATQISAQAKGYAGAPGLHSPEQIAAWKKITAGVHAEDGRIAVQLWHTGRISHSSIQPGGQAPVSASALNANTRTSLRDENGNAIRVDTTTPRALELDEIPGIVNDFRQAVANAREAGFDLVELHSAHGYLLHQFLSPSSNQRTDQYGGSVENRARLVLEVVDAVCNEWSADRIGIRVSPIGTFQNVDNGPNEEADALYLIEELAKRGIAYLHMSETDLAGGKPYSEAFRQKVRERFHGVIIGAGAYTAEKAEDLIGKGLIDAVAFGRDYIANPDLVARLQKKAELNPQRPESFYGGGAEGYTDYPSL
Conditions: 25 °C; 10 mM NADPH or 25 mM NADH; pH 7.0
Provide the recorded kobs1 for the entries that follow.

Fill in: kobs1 of `NC(=O)C1=CN([C@@H]2O[C@H](COP(=O)(O)OP(=O)(O)OC[C@H]3O[C@@H](n4cnc5c(N)ncnc54)[C@H](O)[C@@H]3O)[C@@H](O)[C@H]2O)C=CC1` is ___ 1.77 ± 0.06 s⁻¹

Any idea what its kobs1 is? The compound is `NC(=O)C1=CN([C@@H]2O[C@H](COP(=O)(O)OP(=O)(O)OC[C@H]3O[C@@H](n4cnc5c(N)ncnc54)[C@H](OP(=O)(O)O)[C@@H]3O)[C@@H](O)[C@H]2O)C=CC1` 30.24 ± 0.42 s⁻¹

What value of kobs1 has been reported for the following compound? [2H][C@@H]1C=CN([C@@H]2O[C@H](COP(=O)(O)OP(=O)(O)OC[C@H]3O[C@@H](n4cnc5c(N)ncnc54)[C@H](OP(=O)(O)O)[C@@H]3O)[C@@H](O)[C@H]2O)C=C1C(N)=O [(R)-[4-^2H]-NADPH] 4.50 ± 0.02 s⁻¹

Fill in the blank: the reported kobs1 of [2H][C@@H]1C=CN([C@@H]2O[C@H](COP(=O)(O)OP(=O)(O)OC[C@H]3O[C@@H](n4cnc5c(N)ncnc54)[C@H](O)[C@@H]3O)[C@@H](O)[C@H]2O)C=C1C(N)=O [(R)-[4-^2H]-NADH] is ____. 0.223 ± 0.003 s⁻¹
